Parameter pKd: see the listing below.
# experimental-target: T1, EsCas13d, nuclease-dead (Eubacterium siraeum, UniProt B0MS50, R295A;H300A;R849A;H854A)
# T1 sequence: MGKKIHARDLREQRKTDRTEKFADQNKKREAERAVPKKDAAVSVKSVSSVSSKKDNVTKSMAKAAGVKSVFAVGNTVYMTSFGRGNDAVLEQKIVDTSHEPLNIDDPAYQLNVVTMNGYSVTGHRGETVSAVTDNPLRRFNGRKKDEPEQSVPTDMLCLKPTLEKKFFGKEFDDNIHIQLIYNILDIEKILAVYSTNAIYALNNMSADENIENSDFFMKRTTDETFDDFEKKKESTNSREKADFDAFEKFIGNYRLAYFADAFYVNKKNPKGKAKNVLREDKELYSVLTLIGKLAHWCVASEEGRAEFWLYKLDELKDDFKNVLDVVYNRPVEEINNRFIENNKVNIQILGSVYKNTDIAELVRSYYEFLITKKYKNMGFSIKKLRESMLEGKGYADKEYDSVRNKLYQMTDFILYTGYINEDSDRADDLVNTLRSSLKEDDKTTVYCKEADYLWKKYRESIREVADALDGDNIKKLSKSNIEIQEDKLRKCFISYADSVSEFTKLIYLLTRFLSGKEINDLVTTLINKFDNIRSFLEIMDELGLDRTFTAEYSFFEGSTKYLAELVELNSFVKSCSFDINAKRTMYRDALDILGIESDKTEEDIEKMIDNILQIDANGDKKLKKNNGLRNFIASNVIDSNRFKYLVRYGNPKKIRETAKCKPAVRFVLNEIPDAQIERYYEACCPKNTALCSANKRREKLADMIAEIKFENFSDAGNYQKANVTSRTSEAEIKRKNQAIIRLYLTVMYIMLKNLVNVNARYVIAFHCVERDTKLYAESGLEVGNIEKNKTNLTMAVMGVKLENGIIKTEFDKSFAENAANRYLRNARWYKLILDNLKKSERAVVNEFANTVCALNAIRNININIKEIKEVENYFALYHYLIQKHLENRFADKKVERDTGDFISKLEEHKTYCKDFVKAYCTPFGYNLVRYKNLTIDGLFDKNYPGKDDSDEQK
# protocol: crRNA (strand 1, pre-loaded); Mg2+; 40 mM Tris-HCl pH 7.5, 150 mM NaCl, 6 mM MgCl2, 1 mM DTT, 0.1% Tween-20, 0.2 mg/ml BSA; 25 C; 10 min per concentration, then washed
# applied-conditions: tags: His6-TwinStrep-SUMO cleaved; N-terminal SNAP kept (SNAP-Surface 488); label: 3' end held by stalled T7 RNA polymerase
pKd: −log10 of the molar value.
measured-quantity: pKd

{"binder": "target 2 MT 5'PFS GCA 3'PFS CCG (mixed) RNA 1: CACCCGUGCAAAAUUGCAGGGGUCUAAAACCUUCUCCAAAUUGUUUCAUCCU RNA 2: GGGAAUGGAUCCACAUCUACGAAUUCGCAAGGAUGAAACAAUUUGGAGAAGCCGAGAUCGGAAGAGCACACGU", "measured-quantity": "pKd", "test-result": 7.99}
{"binder": "target 1 C4A,C22U (mixed) RNA 1: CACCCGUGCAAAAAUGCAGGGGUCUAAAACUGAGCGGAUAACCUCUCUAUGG RNA 2: GGGAAUGGAUCCACAUCUACGAAUUCGUAUCAUAGAGAGGUUAUCCGAUCACCGAGAUCGGAAGAGCACACGU", "measured-quantity": "pKd", "test-result": 8.04}
{"binder": "target 1 MT 5'PFS GCC 3'PFS AUC (mixed) RNA 1: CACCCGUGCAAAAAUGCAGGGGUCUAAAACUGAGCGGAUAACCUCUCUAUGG RNA 2: GGGAAUGGAUCCACAUCUACGAAUUCGCCCCAUAGAGAGGUUAUCCGCUCAAUCAGAUCGGAAGAGCACACGU", "measured-quantity": "pKd", "test-result": 7.49}
{"binder": "target 1 MT 5'PFS GAG 3'PFS UUG (mixed) RNA 1: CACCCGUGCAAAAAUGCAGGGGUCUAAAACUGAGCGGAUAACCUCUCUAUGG RNA 2: GGGAAUGGAUCCACAUCUACGAAUUCGAGCCAUAGAGAGGUUAUCCGCUCAUUGAGAUCGGAAGAGCACACGU", "measured-quantity": "pKd", "test-result": 8.00}
{"binder": "target 1 MT 5'PFS GGA 3'PFS AGA (mixed) RNA 1: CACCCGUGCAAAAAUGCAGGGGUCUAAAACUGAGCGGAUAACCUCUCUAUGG RNA 2: GGGAAUGGAUCCACAUCUACGAAUUCGGACCAUAGAGAGGUUAUCCGCUCAAGAAGAUCGGAAGAGCACACGU", "measured-quantity": "pKd", "test-result": 7.69}
{"binder": "target 2 MT 5'PFS CGC 3'PFS ACU (mixed) RNA 1: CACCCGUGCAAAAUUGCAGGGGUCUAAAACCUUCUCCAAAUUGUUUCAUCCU RNA 2: GGGAAUGGAUCCACAUCUACGAAUUCCGCAGGAUGAAACAAUUUGGAGAAGACUAGAUCGGAAGAGCACACGU", "measured-quantity": "pKd", "test-result": 8.22}
{"binder": "target 1 MT 5'PFS UCA 3'PFS CCU (mixed) RNA 1: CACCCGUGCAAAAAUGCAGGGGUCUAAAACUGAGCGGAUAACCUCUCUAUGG RNA 2: GGGAAUGGAUCCACAUCUACGAAUUCUCACCAUAGAGAGGUUAUCCGCUCACCUAGAUCGGAAGAGCACACGU", "measured-quantity": "pKd", "test-result": 7.56}
